Measured IC50, listed per entry.
molecular target: ErbB2 kinase (Homo sapiens, UniProt P04626); assay: Enzymatic experiment on ErbB2 (HTRF kinEASE-TK); assay type: biochemical; conditions: ATP 4 μM; read-out: Kinase IC50 (nM) in vitro ErbB2
Sequence (P04626 23-1255): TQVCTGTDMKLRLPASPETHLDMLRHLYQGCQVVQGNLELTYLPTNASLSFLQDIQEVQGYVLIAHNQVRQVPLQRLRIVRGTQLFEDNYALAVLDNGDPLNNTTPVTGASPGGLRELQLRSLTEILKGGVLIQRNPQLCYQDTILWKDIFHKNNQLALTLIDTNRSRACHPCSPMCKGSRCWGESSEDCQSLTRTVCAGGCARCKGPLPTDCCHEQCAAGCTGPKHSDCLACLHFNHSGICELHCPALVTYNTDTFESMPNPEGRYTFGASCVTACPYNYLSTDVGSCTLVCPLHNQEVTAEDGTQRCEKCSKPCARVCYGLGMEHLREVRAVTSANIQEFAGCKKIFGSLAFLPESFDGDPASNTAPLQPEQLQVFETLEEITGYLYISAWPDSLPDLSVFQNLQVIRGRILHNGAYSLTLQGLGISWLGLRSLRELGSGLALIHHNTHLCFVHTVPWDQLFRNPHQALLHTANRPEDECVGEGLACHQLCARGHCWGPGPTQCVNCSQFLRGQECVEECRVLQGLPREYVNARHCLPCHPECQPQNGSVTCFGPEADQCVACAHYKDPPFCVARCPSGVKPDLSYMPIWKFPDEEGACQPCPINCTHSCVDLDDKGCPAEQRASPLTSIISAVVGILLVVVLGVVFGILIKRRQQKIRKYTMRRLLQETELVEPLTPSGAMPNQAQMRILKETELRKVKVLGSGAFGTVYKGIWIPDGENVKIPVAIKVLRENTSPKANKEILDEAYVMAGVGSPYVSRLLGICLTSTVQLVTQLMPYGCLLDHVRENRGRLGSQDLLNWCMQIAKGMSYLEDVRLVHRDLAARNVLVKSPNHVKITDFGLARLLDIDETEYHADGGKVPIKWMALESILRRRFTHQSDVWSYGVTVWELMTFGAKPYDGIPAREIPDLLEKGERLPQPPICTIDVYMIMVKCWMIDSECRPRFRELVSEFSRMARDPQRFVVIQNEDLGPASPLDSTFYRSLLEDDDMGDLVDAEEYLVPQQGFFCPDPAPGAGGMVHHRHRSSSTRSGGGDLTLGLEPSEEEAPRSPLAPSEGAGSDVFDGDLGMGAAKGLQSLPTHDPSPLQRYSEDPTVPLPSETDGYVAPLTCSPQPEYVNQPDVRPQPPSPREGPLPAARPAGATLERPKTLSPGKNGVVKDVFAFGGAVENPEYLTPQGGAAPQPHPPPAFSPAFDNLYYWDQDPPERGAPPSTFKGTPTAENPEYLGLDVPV
reportedProperty: IC50 (nM)

[[record]]
molecule = "Cc1cc(Nc2ncnc3ccc(NC4=NCC5(CCNCC5)O4)cc23)ccc1Oc1cc2nncn2cn1 [Embodiment 28]"
datavalue = 4.79

[[record]]
molecule = "CNC(=O)CN1CCC(Oc2cc3c(Nc4ccc(Oc5cc6nncn6cn5)c(C)c4)ncnc3cc2OC)CC1 [Embodiment 32]"
datavalue = 4.3

[[record]]
molecule = "COc1cc2ncnc(Nc3ccc(Oc4cc5nncn5cn4)c(C)c3)c2cc1OC1CCNCC1 [Embodiment 40]"
datavalue = 6.9


* * *

molecular target: ErbB2 kinase (Homo sapiens); assay: Enzymatic experiment on ErbB2 (HTRF kinEASE-TK); type: biochemical; settings: ATP 4 μM; read-out: Kinase IC50 (nM) in vitro ErbB2
Attribute: IC50
reportedProperty: IC50 (nM)

[[record]]
recordsmiles = "Cc1cc(Nc2ncnc3ccc(-c4cccc(N5CCS(=O)(=O)CC5)c4)cc23)ccc1Oc1cc2nncn2cn1"
reportedproperty = "IC50"
unitdescriptor = "nM"
datavalue = 1.3

[[record]]
recordsmiles = "Cc1cc(Nc2ncnc3ccc(NC4=NC5(CO4)CN(C(=O)OC(C)(C)C)C5)cc23)ccc1Oc1cc2nncn2cn1"
reportedproperty = "IC50"
unitdescriptor = "nM"
datavalue = 3.8

[[record]]
recordsmiles = "Cc1cc(Nc2ncnc3ccc(-c4cccc(CNCCS(C)(=O)=O)c4)cc23)ccc1Oc1cc2nncn2cn1"
reportedproperty = "IC50"
unitdescriptor = "nM"
datavalue = 2.2

[[record]]
recordsmiles = "Cc1cc(Nc2ncnc3ccc(-c4ccc(CN(C)C)o4)cc23)ccc1Oc1cc2nncn2cn1"
reportedproperty = "IC50"
unitdescriptor = "nM"
datavalue = 5.7

[[record]]
recordsmiles = "Cc1cc(Nc2ncnc3ccc(/C=C/CNC(=O)C4CC4)cc23)ccc1Oc1cc2nncn2cn1"
reportedproperty = "IC50"
unitdescriptor = "nM"
datavalue = 2.7

[[record]]
recordsmiles = "Cc1cc(Nc2ncnc3ccc(NC(=O)CC#N)cc23)ccc1Oc1cc2nncn2cn1"
reportedproperty = "IC50"
unitdescriptor = "nM"
datavalue = 4.8

[[record]]
recordsmiles = "Cc1cc(Nc2ncnc3ccc(-c4ccc(CN5CCN(C)CC5)o4)cc23)ccc1Oc1cc2nncn2cn1"
reportedproperty = "IC50"
unitdescriptor = "nM"
datavalue = 6

[[record]]
recordsmiles = "Cc1cc(Nc2ncnc3ccc(NC4=NC5(CCC5)CO4)cc23)ccc1Oc1cc2nncn2cn1"
reportedproperty = "IC50"
unitdescriptor = "nM"
datavalue = 1.43


* * *

Property: IC50; scope: individual compounds
biological target: UniProt:P04626; assay: Enzymatic experiment on ErbB2 (HTRF kinEASE-TK); assay type: biochemical; conditions: ATP 4 μM; read-out: Kinase IC50 (nM) in vitro ErbB2
reportedProperty: IC50

[[record]]
compound = "Cc1cc(Nc2ncnc3ccc(-n4ccc(CNCCS(C)(=O)=O)c4)cc23)ccc1Oc1cc2nncn2cn1 [Embodiment 86]"
studysystem = "UniProt:P04626"
reportedproperty = "IC50"
datavalue = "3.1 nM"

[[record]]
compound = "Cc1cc(Nc2ncnc3ccc(-c4cccc(NCCS(C)(=O)=O)c4)cc23)ccc1Oc1cc2nncn2cn1 [Embodiment 115]"
studysystem = "UniProt:P04626"
reportedproperty = "IC50"
datavalue = "5.91 nM"

[[record]]
compound = "Cc1cc(NC(=O)Nc2ccc3ncnc(Nc4ccc(Oc5cc6nncn6cn5)c(C)c4)c3c2)n[nH]1 [Embodiment 70]"
studysystem = "UniProt:P04626"
reportedproperty = "IC50"
datavalue = "3.3 nM"

[[record]]
compound = "Cc1cc(Nc2ncnc3ccc(NC4=NC(C)(CO)CO4)cc23)ccc1Oc1cc2nncn2cn1 (stereo not shown) [Embodiment 13]"
studysystem = "UniProt:P04626"
reportedproperty = "IC50"
datavalue = "2.6 nM"

